This listing pairs molecules with measured MRT.
Assay: in vivo
Settings: male, Wistar, rat, iv
Starred links: 1 amine or outer side, 2 acyl side, 3 side chain; linkers in the order of their positions; H or OH if unused. Non-standard residues stand in square brackets, D forms with d. Residues, ends and D or L forms follow the SMILES beside them. X1 = CC(C)C[C@H](NC(=S)[C@H](Cc1ccc(O)cc1)N[*:1])C(=O)[*:2]; X2 = CC(C)C[C@H](NC(=S)[C@@H](CC(C)C)N[*:1])C(=O)[*:2]; X3 = CC(C)C[C@H](N[*:1])C(=S)N[C@H](CC(C)C)C(=O)[*:2]; NMeL = CN[C@@H](CC(C)C)C(=O)O
Write your answer as a measured quantity: the number, then the unit.

Molecule	MRT
CC(C)C[C@@H]1NC(=O)[C@@H](CC(C)C)NC(=O)[C@H](CC(C)C)NC(=S)[C@H](Cc2ccc(O)cc2)NC(=O)[C@H]2CCCN2C(=O)[C@H](CC(C)C)NC1=O [10e] (cyclo(LL[dP][X1][dL]))	1.5 h
CC(C)C[C@@H]1NC(=O)[C@@H](CC(C)C)NC(=O)[C@H](CC(C)C)N(C)C(=O)[C@H](Cc2ccc(O)cc2)NC(=O)[C@H]2CCCN2C(=O)[C@H](CC(C)C)NC1=O [10k] (cyclo(LL[dP]Y[NMeL][dL]))	0.4 h
CC(C)C[C@@H]1NC(=O)[C@H](Cc2ccc(O)cc2)NC(=O)[C@H]2CCCN2C(=O)[C@H](CC(C)C)NC(=O)[C@H](CC(C)C)NC(=O)[C@@H](CC(C)C)NC1=O [compound 10, cyclo(-D-Leu^1-Leu-Leu-D-Pro-Tyr-Leu^6-)] (cyclo(LL[dP]YL[dL]))	1.6 h

Sample CC(C)C[C@@H]1NC(=O)[C@H](Cc2ccc(O)cc2)NC(=O)[C@H]2CCCN2C(=O)[C@H](CC(C)C)NC(=O)[C@H](CC(C)C)NC(=S)[C@@H](CC(C)C)NC1=O [10a] (cyclo(L[dP]YL[X2])) ; MRT observed: 2.8 h

# MRT of CC(C)C[C@@H]1NC(=O)[C@H](Cc2ccc(O)cc2)NC(=O)[C@H]2CCCN2C(=O)[C@H](CC(C)C)NC(=O)[C@H](CC(C)C)N(C)C(=O)[C@@H](CC(C)C)NC1=O [10h] (cyclo(L[dL][NMeL]L[dP]Y)) = 0.4 h

Reported MRT for CC(C)C[C@@H]1NC(=O)[C@@H](CC(C)C)NC(=S)[C@H](CC(C)C)NC(=O)[C@H](Cc2ccc(O)cc2)NC(=O)[C@H]2CCCN2C(=O)[C@H](CC(C)C)NC1=O [10f] (cyclo(LL[dP]Y[X3])) was 1.1 h

---

Experiment: in vitro
Details: pig, simulated intestinal fluid
Starred links: 1 amine or outer side, 2 acyl side, 3 side chain; linkers in the order of their positions; H or OH if unused. Non-standard residues stand in square brackets, D forms with d. Residues, ends and D or L forms follow the SMILES beside them. X6 = O=C([C@H](Cc1ccc(O)cc1)NC(=S)[C@H]1CCCN1[*:1])[*:2]; X2 = CC(C)C[C@H](NC(=S)[C@@H](CC(C)C)N[*:1])C(=O)[*:2]; NMeY = CN[C@@H](Cc1ccc(O)cc1)C(=O)O; NMeL = CN[C@@H](CC(C)C)C(=O)O; dNMeL = CN[C@H](CC(C)C)C(=O)O
Parameter Measured: remaining at 8 h (%)
Expressed in %, but write only the number.

Compound	remaining at 8 h, %
CC(C)C[C@@H]1NC(=O)[C@H](Cc2ccc(O)cc2)NC(=O)[C@H]2CCCN2C(=O)[C@H](CC(C)C)NC(=O)[C@H](CC(C)C)NC(=S)[C@@H](CC(C)C)NC1=O [10a] (cyclo(L[dP]YL[X2]))	26.3
CC(C)C[C@@H]1NC(=O)[C@@H](CC(C)C)NC(=O)[C@H](CC(C)C)NC(=O)[C@H](Cc2ccc(O)cc2)N(C)C(=O)[C@H]2CCCN2C(=O)[C@H](CC(C)C)NC1=O [10j] (cyclo(LL[dP][NMeY]L[dL]))	0.525
CC(C)C[C@@H]1NC(=O)[C@@H](CC(C)C)N(C)C(=O)[C@H](CC(C)C)NC(=O)[C@H](Cc2ccc(O)cc2)NC(=O)[C@H]2CCCN2C(=O)[C@H](CC(C)C)NC1=O [10g] (cyclo(LL[dP]YL[dNMeL]))	0
CC(C)C[C@@H]1NC(=O)[C@H](Cc2ccc(O)cc2)NC(=O)[C@H]2CCCN2C(=O)[C@H](CC(C)C)NC(=O)[C@H](CC(C)C)N(C)C(=O)[C@@H](CC(C)C)NC1=O [10h] (cyclo(L[dL][NMeL]L[dP]Y))	2.66

Let us move to another entry and its remaining at 8 h.
Item: CC(C)C[C@@H]1NC(=O)[C@H](Cc2ccc(O)cc2)NC(=S)[C@H]2CCCN2C(=O)[C@H](CC(C)C)NC(=O)[C@H](CC(C)C)NC(=O)[C@@H](CC(C)C)NC1=O [10d] (cyclo(LL[X6]L[dL])) | remaining at 8 h: 19.6

These data points were gathered from paper PMC10539501.
